The reported numbers originate from patent US20160346249A1.

assay: 12-month dog toxicity and toxicokinetic study; type: in vivo; settings: male, beagle, dog, plasma, po, 2 mg/kg/day, males, 2 mg/kg/day, Day 0
parameter: Tmax (h)
Unit h implied. Number only.

IN: I would be grateful if you could share the reported Tmax for "Clc1ccc([C@]23CNC[C@H]2C3)cc1Cl" .
OUT: 1.3

====

assay: Single dose 300 mg / 450 mg pharmacokinetic, safety and tolerability study in healthy male and female subjects; details: both, human, plasma, po, 300 mg
parameter: Tmax (h)
Unit h implied. Number only.

{"columns": ["molecule", "display_unit", "Tmax"],
 "data": [
  ["O=C1NCC2(c3ccc(Cl)c(Cl)c3)CC12 (centres unmarked)", "h", 7.8]
]}

Switching to the query record.
IN: I would be grateful if you could share the reported Tmax for "Clc1ccc([C@]23CNC[C@H]2C3)cc1Cl" .
OUT: 2.15

====

assay: 13-week rat toxicity and toxicokinetic study; format: in vivo; conditions: female, Crl:CD(SD)IGS BR, rat, in vivo, po, 10 mg/kg/day, females, 10 mg/kg/day, Day 87
parameter: Cmax (ng/mL)
Unit ng/mL implied. Number only.

IN: I would be grateful if you could share the reported Cmax for "Clc1ccc([C@]23CNC[C@H]2C3)cc1Cl" .
OUT: 1850

====

assay: 13-week rat toxicity and toxicokinetic study; type: in vivo; conditions: male, Crl:CD(SD)IGS BR, rat, in vivo, po, 60 mg/kg/day, males, 60 mg/kg/day, Day 87
parameter: Tmax (h)
Unit h implied. Number only.

IN: I would be grateful if you could share the reported Tmax for Clc1ccc([C@]23CNC[C@H]2C3)cc1Cl [amitifadine] .
OUT: 1

====

test: Single dose 300 mg / 450 mg pharmacokinetic, safety and tolerability study in healthy male and female subjects; details: female, human, plasma, po, 450 mg
parameter: concentration at 0 h (ng/mL)
Unit ng/mL implied. Number only.

IN: I would be grateful if you could share the reported concentration at 0 h for O=C1NCC2(c3ccc(Cl)c(Cl)c3)CC12 (stereo not shown) [EB-10101] .
OUT: 0

====

test: Single rising oral dose (10-150 mg IR) safety, tolerance and pharmacokinetics in healthy male volunteers; type: in vivo, human; details: male, human, plasma, oral, 10 mg, Median; read-out: t1/2 (converted)
parameter: half-life
The number alone won't do; follow it with the unit.

IN: I would be grateful if you could share the reported half-life for "Clc1ccc([C@]23CNC[C@H]2C3)cc1Cl" .
OUT: 3.47 h

====

assay: Single rising oral dose (10-150 mg IR) safety, tolerance and pharmacokinetics in healthy male volunteers; assay type: in vivo, human; conditions: human, plasma, oral, 50 mg, individual subject; read-out: MRT0-∞
parameter: MRT inf
The number alone won't do; follow it with the unit.

IN: I would be grateful if you could share the reported MRT inf for Clc1ccc([C@]23CNC[C@H]2C3)cc1Cl [amitifadine] .
OUT: 5.18 h

====

experiment: Multiple-dose safety and PK study 25 mg BID and 50 mg BID for 10 days; assay type: in vivo, human; conditions: male, human, in vivo, 50 mg, 50 mg BID; Day 1; healthy male subjects; mean (SD); read-out: AUC0-12
parameter: AUC(0-t) (ng·h/mL)
Unit ng·h/mL implied. Number only.

IN: I would be grateful if you could share the reported AUC(0-t) for "Clc1ccc([C@]23CNC[C@H]2C3)cc1Cl" .
OUT: 2240
